Below, each entry is listed with its recorded Zone of inhibition.
# System: B. licheniformis PA
# test-protocol: Antibiogram by disc diffusion method
# Assay type: cell-based, Bacillus licheniformis
# condition-parameters: 6 mm antibiotic discs, Mueller-Hinton plates, 18 hours at 37° C.; strain B. licheniformis PA

{"molecule": "CC1(C)S[C@@H]2[C@H](NC(=O)[C@H](NC(=O)N3CCNC3=O)c3ccccc3)C(=O)N2[C@H]1C(=O)O [Azlocillin]", "Zone of inhibition (mm)": 16}
{"molecule": "CC(=O)OCC1=C(C(=O)O)N2C(=O)[C@@H](NC(=O)Cc3cccs3)[C@H]2SC1 [Cephalothin]", "Zone of inhibition (mm)": 20}
{"molecule": "CC1(C)S[C@@H]2[C@H](NC(=O)[C@H](C(=O)O)c3ccsc3)C(=O)N2[C@H]1C(=O)O [Ticarcillin]", "Zone of inhibition (mm)": 20}
{"molecule": "CCN1CCN(C(=O)N[C@@H](C(=O)N[C@@H]2C(=O)N3C(C(=O)O)=C(CSc4nnnn4C)CS[C@H]23)c2ccc(O)cc2)C(=O)C1=O [Cefoperazon]", "Zone of inhibition (mm)": 12}
{"molecule": "CCC[C@@H]1C[C@@H](C(=O)N[C@@H]([C@H]2O[C@H](SC)[C@H](O)[C@@H](O)[C@H]2O)[C@H](C)Cl)N(C)C1 [Clindamycin]", "Zone of inhibition (mm)": 0}
{"molecule": "C[C@@H](O)[C@H]1C(=O)N2C(C(=O)O)=C(SCCN=CN)C[C@H]12 [Imipenem]", "Zone of inhibition (mm)": 32}
{"molecule": "NCC[C@H](O)C(=O)N[C@@H]1C[C@H](N)[C@@H](O[C@H]2O[C@H](CN)[C@@H](O)[C@H](O)[C@H]2O)[C@H](O)[C@H]1O[C@H]1O[C@H](CO)[C@@H](O)[C@H](N)[C@H]1O [Amikacin]", "Zone of inhibition (mm)": 18}

* * *

Below, each entry is listed with its recorded Zone of inhibition.
# Tested on: B. licheniformis PA
# test-protocol: Antibiogram by disc diffusion method
# Format: cell-based, Bacillus licheniformis
# condition-parameters: 6 mm antibiotic discs, Mueller-Hinton plates, 18 hours at 37° C.; strain B. licheniformis PA

{"smiles-representation": "CO/N=C(\\C(=O)N[C@@H]1C(=O)N2C(C(=O)O)=C(COC(C)=O)CS[C@H]12)c1csc(N)n1", "test-system": "B. licheniformis PA", "Zone of inhibition / mm": 10}
{"smiles-representation": "NC[C@H]1O[C@H](O[C@H]2[C@H](O)[C@@H](O[C@H]3O[C@H](CO)[C@@H](O)[C@H](N)[C@H]3O)[C@H](N)C[C@@H]2N)[C@H](N)C[C@@H]1O", "test-system": "B. licheniformis PA", "Zone of inhibition / mm": 20}
{"smiles-representation": "CC1(C)S[C@@H]2[C@H](NC(=O)[C@H](NC(=O)N3CCN(S(C)(=O)=O)C3=O)c3ccccc3)C(=O)N2[C@H]1C(=O)O", "test-system": "B. licheniformis PA", "Zone of inhibition / mm": 17}
{"smiles-representation": "CC1(C)S[C@@H]2[C@H](NC(=O)Cc3ccccc3)C(=O)N2[C@H]1C(=O)O", "test-system": "B. licheniformis PA", "Zone of inhibition / mm": 0}
{"smiles-representation": "Cn1nnnc1SCC1=C(C(=O)O)N2C(=O)[C@@H](NC(=O)[C@H](O)c3ccccc3)[C@H]2SC1", "test-system": "B. licheniformis PA", "Zone of inhibition / mm": 16}
{"smiles-representation": "Cc1onc(-c2ccccc2)c1C(=O)N[C@@H]1C(=O)N2[C@@H]1SC(C)(C)[C@@H]2C(=O)O", "test-system": "B. licheniformis PA", "Zone of inhibition / mm": 0}
{"smiles-representation": "CC(C)(O/N=C(\\C(=O)N[C@@H]1C(=O)N2C(C(=O)[O-])=C(C[n+]3ccccc3)CS[C@H]12)c1csc(N)n1)C(=O)O", "test-system": "B. licheniformis PA", "Zone of inhibition / mm": 0}
{"smiles-representation": "COc1cccc(OC)c1C(=O)N[C@@H]1C(=O)N2[C@@H]1SC(C)(C)[C@@H]2C(=O)O", "test-system": "B. licheniformis PA", "Zone of inhibition / mm": 0}
{"smiles-representation": "COc1cc(Cc2cnc(N)nc2N)cc(OC)c1OC", "test-system": "B. licheniformis PA", "Zone of inhibition / mm": 24}
